Where do these numbers come from? They come from ChEMBL document CHEMBL3045311.

Form field: log10(MFC) (one value per entry).
System: Zygosaccharomyces bailii
Assay details: Antifungal activity against Zygosaccharomyces bailii assessed as growth inhibition measured after 48 hr by macrodilution assay
Type: functional
The base-10 logarithm of MFC, taken with MFC in µg/mL, is what appears here.

# example entries with known answers
Compound | Assay system | log10(MFC)
CCCCCC(=O)O [HEXANOATE] | Zygosaccharomyces bailii | 3.51
CC1(C)CCC[C@]2(C)[C@@H](C=O)C(C=O)=CC[C@@H]12 [POLYGODIAL] | Zygosaccharomyces bailii | 1.70
C/C=C/c1ccc(OC)cc1 [ANETHOLE] | Zygosaccharomyces bailii | 2.60

Given CCC/C=C\C(=O)O [(2Z)-HEXENOIC ACID] , respond with its log10(MFC).
3.20

Provide log10(MFC) value for the following compound: C/C=C/C=C/C(=O)O [SORBIC ACID]
3.20

Please report log10(MFC) for the following compound: Clc1ccc(COC(Cn2ccnc2)c2ccc(Cl)cc2Cl)c(Cl)c1 (stereo not drawn) [MICONAZOLE]
1.10

Using the record for CCC/C=C/C(=O)O [(2E)-HEXENOIC ACID] , state its measured log10(MFC).
3.20
